experiment: Rat biodistribution of Tc-99m complexes; settings: 2 min p.i.
Attribute Measured: Heart/Blood Counts/Gram Ratio

Molecule: CCOCCP(CCOCC)c1ccccc1P(CCOCC)CCOCC
Attribute Measured: Heart/Blood Counts/Gram Ratio
Result: 0.99

Molecule: C1COC(CP(CCP(CC2CCCO2)CC2CCCO2)CC2CCCO2)C1 (stereo not shown)
Attribute Measured: Heart/Blood Counts/Gram Ratio
Result: 6.98

Molecule: COCC(C)CP(CCP(CC(C)COC)CC(C)COC)CC(C)COC (stereo not shown)
Attribute Measured: Heart/Blood Counts/Gram Ratio
Result: 0.41

Molecule: C1OCC(CP(CCP(CC2COCO2)CC2COCO2)CC2COCO2)O1 (stereo not shown)
Attribute Measured: Heart/Blood Counts/Gram Ratio
Result: 0.33

Molecule: CCOCCCP(CCCOCC)CCP(CCCOCC)CCCOCC
Attribute Measured: Heart/Blood Counts/Gram Ratio
Result: 1.96

Molecule: COCCP(CCOC)CCP(CCOC)CCOC
Attribute Measured: Heart/Blood Counts/Gram Ratio
Result: 0.44

Molecule: CCOCCP(CCOC)CCP(CCOC)CCOCC (stereo not shown)
Attribute Measured: Heart/Blood Counts/Gram Ratio
Result: 1.62

Molecule: CCOCCP(CCOCC)CC(CP(CCOCC)CCOCC)OC
Attribute Measured: Heart/Blood Counts/Gram Ratio
Result: 1.45

Molecule: CCOCCP(CCCP(CCOCC)CCOCC)CCOCC
Attribute Measured: Heart/Blood Counts/Gram Ratio
Result: 0.34

Molecule: COCC(COC)CP(CCP(CC(COC)COC)CC(COC)COC)CC(COC)COC
Attribute Measured: Heart/Blood Counts/Gram Ratio
Result: 2.99

Molecule: CCOCCOCCP(CCOCCOCC)CCP(CCOCCOCC)CCOCCOCC
Attribute Measured: Heart/Blood Counts/Gram Ratio
Result: 0.72

Molecule: C1COC(CP(CCCP(CC2CCCO2)CC2CCCO2)CC2CCCO2)C1 (stereo not shown)
Attribute Measured: Heart/Blood Counts/Gram Ratio
Result: 0.88

Molecule: CCOC(CCP(CCC(OCC)OCC)CCP(CCC(OCC)OCC)CCC(OCC)OCC)OCC
Attribute Measured: Heart/Blood Counts/Gram Ratio
Result: 1.95
